target desc: Tyrosyl-tRNA synthetase, putative (Trypanosoma cruzi (strain CL Brener))
assay protocol: Trypanosoma cruzi tyrosyl tRNA synthetase (TcYRS) _High Tyrosine SOP; note: in the data most compounds retested in dose-response had high values
Assay type: functional
Set-up: scale not given: direction of the effect not stated beside the values
reported conditions: 30 µM
Provide the recorded Percent Effect for the entries that follow.
API: value field is a number in %; no unit string.

Data request: Entry Cc1nc(C2CCCN(C(=O)c3ccc(OCC4CC4)cc3)C2)no1 (centres undefined) : reported Percent Effect = ?
Data returned: 5.42

Data request: Likewise for "CN1CCc2onc(CNc3ncccn3)c2C1" ?
Data returned: 0

Data request: Likewise for "O=C(O)c1ccc2ccc(N3CCN(CC4CC4)CC3)n2c1" ?
Data returned: 18.4

Data request: Likewise for "CC(C)Cc1noc(CN2CCN(C(=O)c3ccco3)CC2)n1" ?
Data returned: 5.21

Data request: Likewise for CN1CCCC1c1cccc(Cc2ccccc2F)n1 (centres undefined) ?
Data returned: 14

Data request: Likewise for CC(CNC(=O)N1CCN(CC(F)F)CC1)Cc1cccs1 (centres undefined) ?
Data returned: 8.91

Data request: Likewise for O=C(NCCN1CCOCC1)NCC(O)c1cccc(F)c1 (centres undefined) ?
Data returned: 5.42

Data request: Likewise for Cc1nc(C)n(CC2CCCN2Cc2cscn2)n1 (centres undefined) ?
Data returned: 5.71

Data request: Likewise for "O=C(c1cccs1)N1CC[C@H](O)[C@@H]1Cc1ccccc1" ?
Data returned: 0.966

Data request: Likewise for "CN(C)[C@@H]1CCN(C(=O)NC2CCCC2)[C@H]1Cc1cnn(C)c1" ?
Data returned: 1.06

Data request: Likewise for "CCC(=O)N1CCC(Cc2nccnc2Nc2ccccn2)CC1" ?
Data returned: -4.23

Data request: Likewise for "Cc1ccc(C)c(-n2ccc3nc(N4CCCC4)ncc3c2=O)c1" ?
Data returned: 3.17

Data request: Likewise for O=C(N1CCCC1)N1CCc2ncnc(C3CCOC3)c2CC1 (centres undefined) ?
Data returned: 3.19

Data request: Likewise for "Cc1nc(-c2nnc[nH]2)sc1C(=O)N(Cc1cccnc1)C1CC1" ?
Data returned: 2.39

Data request: Likewise for "O=C(c1ccc(-n2cccn2)nc1)N1CCC(Nc2cccnn2)CC1" ?
Data returned: 6.67

Data request: Likewise for "O=C(NCc1nnc2n1CCCC2)N(Cc1ccccc1F)C1CC1" ?
Data returned: 0.529

Data request: Likewise for CS(=O)(=O)c1ccccc1C(=O)NCC1Cc2ccccc2O1 (centres undefined) ?
Data returned: 4.3

Data request: Likewise for "CC(=O)N1[C@H](CN(C)C)C[C@@H]2CN(C(=O)c3cccc(F)c3)CC[C@@H]21" ?
Data returned: 3.87

Data request: Likewise for CCC(=O)N1CCC2(COCc3c(C)nc(N(C)C)nc32)C1 (centres undefined) ?
Data returned: 0

Data request: Likewise for "COc1ccc2c(c1)CN(Cc1nc3ccsc3c(=O)[nH]1)CC2" ?
Data returned: 3.45

Data request: Likewise for CN1CC(=O)N(c2ccsc2)CC12CCN(S(C)(=O)=O)C2 (centres undefined) ?
Data returned: 3.96

Data request: Likewise for "CN(C)c1cc2c(nn1)CCN(C(=O)Cc1noc3ccccc13)C2" ?
Data returned: 4.31

Data request: Likewise for Cc1nc(CN2CCC(N(C)Cc3noc(C4CC4)n3)C2)oc1C (centres undefined) ?
Data returned: 12.8

Data request: Likewise for "O=C(NCCNc1ncccn1)C1CCN(C(=O)C2CC2)CC1" ?
Data returned: 6.93

----------
target desc: Arginase-2, mitochondrial (Homo sapiens)
Sequence (whole entry): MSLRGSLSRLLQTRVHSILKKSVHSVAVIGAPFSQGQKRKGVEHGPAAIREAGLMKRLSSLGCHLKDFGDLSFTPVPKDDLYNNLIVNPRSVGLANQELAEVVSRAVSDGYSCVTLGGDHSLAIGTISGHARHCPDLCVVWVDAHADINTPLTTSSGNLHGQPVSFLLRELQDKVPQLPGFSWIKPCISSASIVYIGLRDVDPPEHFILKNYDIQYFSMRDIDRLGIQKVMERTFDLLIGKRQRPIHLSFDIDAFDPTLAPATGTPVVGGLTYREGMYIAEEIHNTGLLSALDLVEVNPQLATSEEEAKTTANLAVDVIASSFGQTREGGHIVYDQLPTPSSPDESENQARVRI
assay protocol: in vitro enzyme assay to detect the production of urea directly proportional to the activity of Arginase II; note: in the data most compounds retested in dose-response had high values
Type: functional
Set-up: scale not given: direction of the effect not stated beside the values
reported conditions: 33.3 µM
measurement label: Percent Effect (%)
API: value field is a number in %; no unit string.

Data request: Percent Effect of "CN(Cc1ccsc1)C(=O)Nc1ccc(S(C)(=O)=O)nc1" on Arginase-2, mitochondrial (Homo sapiens)?
Data returned: -3.04

Data request: Likewise for Cc1noc2ncc(C(=O)N3CCCC3c3ccncc3)cc12 (stereo unspecified) ?
Data returned: -3.42

Data request: Likewise for "COCC(=O)N1CC[C@@H](O)[C@@H]1Cc1ccccc1" ?
Data returned: -4.45

Data request: Likewise for Cc1noc(C)c1CN1CCN(Cc2nccn2C)C(C)C1 (stereo unspecified) ?
Data returned: 5.7

Data request: Likewise for "O=C1[C@@H]2CCN(Cc3ccoc3)C[C@@H]2OCCN1c1ccccc1" ?
Data returned: 8.16

Data request: Likewise for "Cc1ccc(C(=O)N2CCN(CCC(C)(C)C)CC2)c(=O)[nH]1" ?
Data returned: -0.82

----------
target desc: Protein translocase subunit SecA (Escherichia coli (strain K12))
assay protocol: Assay to Identify E. coli SecA ATPase Inhibitors
Type: functional
Design: scale not given: direction of the effect not stated beside the values
reported conditions: 30 µM
Potency and affinity values are given separately.
measurement label: Percent Effect (%)
API: value field is a number in %; no unit string.

Data request: Entry "COCCCN(C)Cc1nc2c(cnn2C)c(=O)[nH]1" : reported Percent Effect = ?
Data returned: -5.54

Data request: Likewise for "Cc1cc(C)n(-c2cncc(NCCNC(=O)C(C)C)n2)n1" ?
Data returned: -6.42

Data request: Likewise for "CCC1=N[C@@]2(CC[C@@H]3CN(C(=O)NCc4ccccc4)C[C@@H]32)C(=O)N1" ?
Data returned: -4.85

Data request: Likewise for Cc1ccc(CCC(=O)N2CCCC(n3cncn3)C2)c(C)c1 (stereo not drawn) ?
Data returned: -4.25

Data request: Likewise for "O=C1[C@H]2CN(c3ncccn3)C[C@H]2CN1Cc1ccncc1" ?
Data returned: -4.5

Data request: Likewise for "O=C(NCc1nn(-c2ccccc2)c2c1CCC2)N1CCSCC1" ?
Data returned: -6.8

Data request: Likewise for "COc1ccc(-n2nnc(C(=O)NC(C)C)c2C2CC2)cc1" ?
Data returned: -1.4

Data request: Likewise for Cc1ccc(-c2nnc(CN3CCOC(Cn4cccn4)C3)o2)cc1 (stereo not drawn) ?
Data returned: -4.11

Data request: Likewise for "CC(=O)N1CCC2(CC1)COCCN2CCN(C)C" ?
Data returned: -1.15

Data request: Likewise for Cc1ccc(C(NC(=O)[C@H]2CC[C@@H](O)CC2)c2cccnc2)cc1C (stereo partly drawn) ?
Data returned: -7.06

Data request: Likewise for COc1ccc(OC)c(C(C)Nc2nc3c(C)nn(C)c3c(=O)n2C)c1 (stereo not drawn) ?
Data returned: -5.58

Data request: Likewise for "CN(C)S(=O)(=O)N1C[C@@H]2CC[C@H](C1)N(Cc1ccc3nsnc3c1)C2" ?
Data returned: -6.44

Data request: Likewise for "COc1ncc(C2(O)CCN(Cc3c(F)cccc3F)CC2)c(OC)n1" ?
Data returned: -3.32

Data request: Likewise for Cc1nccn1-c1cc(CNC(=O)CCC2CCCO2)ccn1 (stereo not drawn) ?
Data returned: -0.34

Data request: Likewise for "CCCn1nccc1C(=O)N1CCCN(CCCc2ccccc2)CC1" ?
Data returned: -5.36

Data request: Likewise for "Cc1csc([C@@H]2C[C@@H]3CCN(C(=O)c4cc(C)on4)C[C@H]3O2)n1" ?
Data returned: -3.41

Data request: Likewise for "CCn1cc(NC(=O)CCc2ccc3c(c2)OCCCO3)cn1" ?
Data returned: -5.48

Data request: Likewise for "O=c1c(-c2ccnc(NC3CCOCC3)n2)cnc2sc(Cl)cn12" ?
Data returned: 5.59

Data request: Likewise for "COC[C@@H]1CC[C@H]2[C@H](CCN2S(=O)(=O)c2ccc(OC)cc2)O1" ?
Data returned: -2.3

Data request: Likewise for "NS(=O)(=O)CCNC(=O)c1ccc(-c2ccc(F)cc2)cc1F" ?
Data returned: -4.5

Data request: Likewise for "CN(C)c1ccc(C(=O)NCC2(c3ccccc3)CCOCC2)cc1" ?
Data returned: -0.155

Data request: Likewise for O=C(c1ccn(-c2cccc(F)c2)n1)N1CCCC(n2cccn2)C1 (stereo not drawn) ?
Data returned: -4.17

Data request: Likewise for c1ncn(CC2CCCN2Cc2cn3ccsc3n2)n1 (stereo not drawn) ?
Data returned: -3.52

----------
Provide the recorded Percent Effect for the entries that follow.
System: Trypanosoma cruzi
assay protocol: Trypanosoma cruzi phosphomannomutase and mannose-1-phosphate guanylyltransferase assay
Format: functional
Set-up: scale not given: direction of the effect not stated beside the values
reported conditions: 10 µM
API: value field is a number in %; no unit string.

Data request: Entry Cc1cnn(CC2CN(CC(=O)N3CCc4ccccc43)CCO2)c1 (centres undefined) : reported Percent Effect = ?
Data returned: -0.803

Data request: Likewise for "CCOc1ncccc1NC(=O)c1cc(C)c(C)s1" ?
Data returned: -2.82

Data request: Likewise for COc1ccc(-c2noc(CNC(C)Cn3cccn3)n2)c(OC)c1 (centres undefined) ?
Data returned: 2.15

Data request: Likewise for "Cc1ccc(NC2CCN(C(=O)c3c(C)noc3C)CC2)nn1" ?
Data returned: 7.33

Data request: Likewise for COc1ccc(CN2CCc3nc(C4CCCCN4C)ncc3C2)cc1 (centres undefined) ?
Data returned: 3.54

Data request: Likewise for "COC[C@H]1CCC[C@]12CN(CCc1ccccc1)CCO2" ?
Data returned: -5.5

Data request: Likewise for "O=C(NCC(=O)N1CCc2ccccc2C1)c1ccoc1" ?
Data returned: -7.46

Data request: Likewise for CCOc1ccccc1-c1noc(CN2CCCC(O)C2)n1 (centres undefined) ?
Data returned: 7.54

Data request: Likewise for Cc1nc(CN2CCCC2c2ccsc2)nc2ccccc12 (centres undefined) ?
Data returned: 4

Data request: Likewise for "Cn1ccnc1CN1CCCN(C(=O)c2ccc(Cl)o2)CC1" ?
Data returned: 1.4

Data request: Likewise for "COC(=O)c1cccc(NC(=O)CN2CCN(S(C)(=O)=O)CC2)c1" ?
Data returned: 2.64

Data request: Likewise for COc1c(C2CCCN2C(=O)c2cc(Cl)c[nH]2)c(C)nn1C (centres undefined) ?
Data returned: -0.781

Data request: Likewise for Cc1ccc(CN2CCC3(CC2)OC(C(=O)N(C)C)c2ccccc23)o1 (centres undefined) ?
Data returned: -10.2

Data request: Likewise for Cc1nc(CN2CCC3(CC2)NC(=O)CC3c2ccccc2)cs1 (centres undefined) ?
Data returned: 0.375

Data request: Likewise for NC(=O)C1CN(C(=O)Nc2ccccc2-c2cccs2)CCO1 (centres undefined) ?
Data returned: 5.66

Data request: Likewise for "O=C(Nc1cccc(CNCc2cccs2)c1)C1CCCC1" ?
Data returned: 2.15

Data request: Likewise for "CN(C)C(=O)N[C@@H]1CN(Cc2ccc3c(c2)OCO3)[C@@H]2CCCO[C@@H]21" ?
Data returned: -0.386

Data request: Likewise for "NC(=O)NCC(=O)N1C[C@H]2CC[C@@H]1CN(Cc1ccccc1)C2" ?
Data returned: -0.979

Data request: Likewise for "O=C(CCn1cccn1)N1CCN(CC(F)F)CC1" ?
Data returned: -0.836

Data request: Likewise for "CSCC[C@H](NC(=O)Cn1ccc2c(Cl)cccc21)C(=O)O" ?
Data returned: -3.93

Data request: Likewise for "CC(C)CC(=O)N1C[C@@H]2CCN(c3ncccn3)C[C@@H]2C1" ?
Data returned: 0.375

Data request: Likewise for COc1cccc(C(=O)N2CCCCC2CNC(N)=O)c1 (centres undefined) ?
Data returned: -4.58

Data request: Likewise for CC(c1nc(C2CC2)no1)N1CCN(Cc2cccc(C#N)c2)CC1 (centres undefined) ?
Data returned: 5.35

Data request: Likewise for "CN1CC[C@H](c2ccccc2)[C@@H]2[C@H]1CCCCN2C(=O)c1cnccn1" ?
Data returned: 3.75

Cited source for all entries: ChEMBL document CHEMBL3988442
